Tested on: RAW 264.7 cells
ASSAY PROTOCOL: Quantitative cell-permeability of FITC-labeled aMTD- or rPeptide-fused CRA recombinant proteins (flow cytometry)
Assay type: cell-based
CONDITION CONTEXT: cell-permeability of aMTD-fused CRA recombinant protein relative to reference CPP (B: MTM12)
READOUT NAME: Relative Ratio (Fold) B

Lab note: measured Relative Ratio (Fold) B of 124 (IAVALPALIAAP; Amino acid Sequence of aMTD124) [compound 124] was 29.0 Fold

Lab note: measured Relative Ratio (Fold) B of 442 (ALAALVPAVLVP; Amino acid Sequence of aMTD442) [compound 442] was 12.6 Fold

Lab note: measured Relative Ratio (Fold) B of 221 (AAILAPIVALAP; Amino acid Sequence of aMTD221) [compound 221] was 7.3 Fold

Lab note: measured Relative Ratio (Fold) B of 545 (VVLVLAAPAAVP; Amino acid Sequence of aMTD545) [compound 545] was 23.1 Fold

Lab note: measured Relative Ratio (Fold) B of 325 (IVAVALPAVALP; Amino acid Sequence of aMTD325) [compound 325] was 7.8 Fold

Lab note: measured Relative Ratio (Fold) B of 222 (ALLIAPAAVIAP; Amino acid Sequence of aMTD222) [compound 222] was 21.7 Fold

Lab note: measured Relative Ratio (Fold) B of 345 (ALLIVAPVAVAP; Amino acid Sequence of aMTD345) [compound 345] was 5.9 Fold

Lab note: measured Relative Ratio (Fold) B of 425 (AVVAIAPVLALP; Amino acid Sequence of aMTD425) [compound 425] was 6.3 Fold

Lab note: measured Relative Ratio (Fold) B of 901 (ALVAVLPAVAVP; Amino acid Sequence of aMTD901) [compound 901] was 5.1 Fold

Lab note: measured Relative Ratio (Fold) B of 845 (AAVVIAPLLAVP; Amino acid Sequence of aMTD845) [compound 845] was 24.0 Fold

Lab note: measured Relative Ratio (Fold) B of 703 (IVAVALVPALAP; Amino acid Sequence of aMTD703) [compound 703] was 19.5 Fold

Lab note: measured Relative Ratio (Fold) B of 263 (ALAVIPAAAILP; Amino acid Sequence of aMTD263) [compound 263] was 6.0 Fold

Lab note: measured Relative Ratio (Fold) B of 665 (LAIVLAAPVAVP; Amino acid Sequence of aMTD665) [compound 665] was 9.9 Fold

Lab note: measured Relative Ratio (Fold) B of 896 (AILIVVAPIAAP; Amino acid Sequence of aMTD896) [compound 896] was 38.5 Fold

Lab note: measured Relative Ratio (Fold) B of 521 (LAALIVVPAVAP; Amino acid Sequence of aMTD521) [compound 521] was 6.3 Fold

Lab note: measured Relative Ratio (Fold) B of 878 (IVALVAPAAVVP; Amino acid Sequence of aMTD878) [compound 878] was 6.9 Fold

Lab note: measured Relative Ratio (Fold) B of 401 (AALAVIPAAILP; Amino acid Sequence of aMTD401) [compound 401] was 7.1 Fold

Lab note: measured Relative Ratio (Fold) B of 582 (VAVALIVPALAP; Amino acid Sequence of aMTD582) [compound 582] was 20.4 Fold

Lab note: measured Relative Ratio (Fold) B of 281 (ALIVLPAAVAVP; Amino acid Sequence of aMTD281) [compound 281] was 8.9 Fold

Lab note: measured Relative Ratio (Fold) B of 341 (IVAVALPAVLAP; Amino acid Sequence of aMTD341) [compound 341] was 10.9 Fold

Lab note: measured Relative Ratio (Fold) B of 788 (AIAVAIAPVALP; Amino acid Sequence of aMTD788) [compound 788] was 6.6 Fold

Lab note: measured Relative Ratio (Fold) B of 501 (VIVALAVPALAP; Amino acid Sequence of aMTD501) [compound 501] was 14.4 Fold

Lab note: measured Relative Ratio (Fold) B of 264 (LAAAPVVIVIAP; Amino acid Sequence of aMTD264) [compound 264] was 12.1 Fold

Lab note: measured Relative Ratio (Fold) B of 312 (VALLAPAVVVAP; Amino acid Sequence of aMTD912) [compound 312] was 13.3 Fold

Lab note: measured Relative Ratio (Fold) B of 763 (VAVLIAVPALAP; Amino acid Sequence of aMTD763) [compound 763] was 7.2 Fold

Lab note: measured Relative Ratio (Fold) B of 343 (IVAVALPALVAP; Amino acid Sequence of aMTD343) [compound 343] was 12.9 Fold

Lab note: measured Relative Ratio (Fold) B of 868 (VLVAAILPAAIP; Amino acid Sequence of aMTD868) [compound 868] was 10.0 Fold

Lab note: measured Relative Ratio (Fold) B of 661 (AAILAPIVAALP; Amino acid Sequence of aMTD661) [compound 661] was 14.3 Fold

Lab note: measured Relative Ratio (Fold) B of 361 (AVVIVAPAVIAP; Amino acid Sequence of aMTD361) [compound 361] was 10.7 Fold

Lab note: measured Relative Ratio (Fold) B of 727 (VALAIALPAVLP; Amino acid Sequence of aMTD727) [compound 727] was 36.7 Fold

Lab note: measured Relative Ratio (Fold) B of 725 (IAVLAVAPAVLP; Amino acid Sequence of aMTD725) [compound 725] was 7.5 Fold

Lab note: measured Relative Ratio (Fold) B of 524 (AVALIVVPALAP; Amino acid Sequence of aMTD524) [compound 524] was 12.2 Fold

Lab note: measured Relative Ratio (Fold) B of 687 (AILAVALPLLAP; Amino acid Sequence of aMTD687) [compound 687] was 7.0 Fold

Lab note: measured Relative Ratio (Fold) B of 444 (LAAALVPVALVP; Amino acid Sequence of aMTD444) [compound 444] was 5.4 Fold
